Let's look at some compounds and their measured pKi.
assay: Inhibition of Plasmodium falciparum HGXPRT
Please express pKi as -log10 of the molar concentration.

Some compounds with recorded pKi:
O=c1[nH]cnc2c1ncn2COCCCCP(=O)(O)O ... 4.54
O=P(O)(O)CCCCCn1cnc2c(O)ncnc21 ... 4.68

Give its pKi value. Item: O=c1[nH]cnc2c1ncn2COCCP(=O)(O)O
4.60

Entry O=c1[nH]cnc2c1ncn2CCCCCCP(=O)(O)O has what pKi?
4.01

Would you kindly share the measured pKi for Nc1nc(O)c2ncn(CCCCCP(=O)(O)O)c2n1 ?
5.70

* * *

pKi listing for selected molecules.
target: Hypoxanthine-guanine phosphoribosyltransferase (Homo sapiens, UniProt P00492); test: Inhibition of human HGPRT
Sequence (P00492 whole entry): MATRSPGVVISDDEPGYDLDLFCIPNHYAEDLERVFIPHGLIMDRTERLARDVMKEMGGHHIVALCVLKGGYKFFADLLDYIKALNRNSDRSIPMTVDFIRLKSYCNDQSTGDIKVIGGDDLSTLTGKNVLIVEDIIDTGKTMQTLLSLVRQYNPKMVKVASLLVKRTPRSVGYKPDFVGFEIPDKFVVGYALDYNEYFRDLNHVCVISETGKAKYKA
pKi: −log10 of the molar value.

Some molecules with recorded pKi:
O=c1[nH]cnc2c1ncn2CCCCP(=O)(O)O ... < 4.00
Nc1nc2c(ncn2CCCP(=O)(O)O)c(=O)[nH]1 ... < 4.00
Nc1nc2c(ncn2CCP(=O)(O)O)c(=O)[nH]1 ... < 4.00

Which pKi reading was recorded for the molecule O=c1[nH]cnc2c1ncn2CP(=O)(O)O ?
5.72

Would you mind telling me what pKi value was observed for Nc1nc2c(ncn2CP(=O)(O)O)c(=O)[nH]1 ?
< 4.00

Which pKi reading was recorded for the molecule O=P(O)(O)CCCCCn1cnc2c(O)ncnc21 ?
< 4.00
